# test: Cytotoxicity against african green monkey CV1 cells
# Assay type: cell-based, CV-1
# study conditions: chlorocebus aethiops
recorded endpoint: CC50

// query Quick one: CC50 of OC1(Cc2ccc3c(c2)OCO3)c2ccccc2C2=NCCN21 (stereo not given) ?
// result > 32 µM

// query # repeat for OC1(Cc2ccc(Cl)cc2)c2ccccc2C2=NCCN21 (stereo not given)
// result > 16 µM

// query # repeat for COc1ccc(CC2(O)c3ccccc3C3=NCCN32)cc1OC (stereo not given)
// result > 30 µM

// query # repeat for CSc1ccc(CC2(O)c3ccccc3C3=NCCN32)cc1 (stereo not given)
// result > 24 µM

// query # repeat for OC1(Cc2cccc3ccccc23)c2ccccc2C2=NCCN21 (stereo not given)
// result > 15 µM
